Sourced from paper PMC8008175

Biological target: T1, Rpn1^391-642 (Saccharomyces cerevisiae, UniProt P38764 391-642)
T1 construct: Used unlabeled, and ^15N-enriched for the titration with Ubp6-UBL; source: E. coli, purified
T1 sequence (looked up): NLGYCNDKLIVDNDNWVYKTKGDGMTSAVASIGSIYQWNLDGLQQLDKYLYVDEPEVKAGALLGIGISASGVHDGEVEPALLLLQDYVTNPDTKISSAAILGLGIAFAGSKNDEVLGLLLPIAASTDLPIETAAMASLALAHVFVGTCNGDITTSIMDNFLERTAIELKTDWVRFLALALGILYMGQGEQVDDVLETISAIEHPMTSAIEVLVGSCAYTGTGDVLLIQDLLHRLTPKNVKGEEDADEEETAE
Assay: NMR titration; unlabeled Ubp6-UBL titrated into ^15N-Rpn1^391-642 or ^15N-Rpn1^391-642(AKAA); CSPs fitted to a single-site binding model, Kd as a global parameter; 50 mM HEPES, 50 mM KCl, 1 mM TCEP, pH 7.6; 21-25 °C
Settings: both partners purified
pKd: −log10 of the molar value.
MEASUREMENT_LABEL: pKd

>>> number("Ubp6-UBL (domain or fragment, Saccharomyces cerevisiae, UniProt P43593 2-81, looked up, Ubp6, Saccharomyces cerevisiae, UniProt P43593, UBL domain, residues 2-81; Used ^15N-enriched or unlabeled; also called UBL domain of Ubp6; source: E. coli, purified) SGETFEFNIRHSGKVYPITLSTDATSADLKSKAEELTQVPSARQKYMVKGGLSGEESIKIYPLIKPGSTVMLLGTPDANL")
4.37
